Listing: optical density of selected binders
# MEASURED_ON: human Fc (human)
# PROTOCOL: ELISA, negative control

These solved cases illustrate the format of a correct answer.
// query optical density value for entry 365_D06 (antibody, V domains shown) VH: EVQLLESGGGLVQPGGSLRLSCAASGFTFDSYSMNWVRQAPGKGLEWVSNINYNGGYTSYADSVKGRFTISRDNSKNTLYLQMNSLRAEDTAVYYCARSATWHDTHLDYWGQGTLVTVSS VL: DIQMTQSPSSLSASVGDRVTITCRASQSILTYVNWYQQKPGKAPKLLIYAATSRASGVPSRFSGSGSGTDFTLTISSLQPEDFATYYCQQSYSLPLTFGGGTKVEIK 0.319 OD

// query optical density value for entry 371_D02 (antibody, V domains shown) VH: EVQLLESGGGLVQPGGSLRLSCAASGFTFDDYSMNWVRQAPGKGLEWVAGINYNGGYKSYADSVKGRFTISRDNSKNTLYLQMNSLRAEDTAVYYCARGANWHDTALDYWGQGTLVTVSS VL: DIQMTQSPSSLSASVGDRVTITCRASQSIVTYLNWYQQKPGKAPKLLIYAATSRASGVPSRFSGSGSGTDFTLTISSLQPEDFATYYCQQSYDSPLTFGGGTKVEIK 0.385 OD

Here is another binder to look at.
// query optical density value for entry 367_B12 (antibody, V domains shown) VH: EVQLLESGGGLVQPGGSLRLSCAASGFTFSSYGMHWVRQAPGKGLEWVASINYNGGYKSYADSVKGRFTISRDNSKNTLYLQMNSLRAEDTAVYYCARGANWHDTHLDYWGQGTLVTVSS VL: DIQMTQSPSSLSASVGDRVTITCRASQSILSYVNWYQQKPGKAPKLVIYAATSLASGVPSRFSGSGSGTDFTLTISSLQPEDFATYYCQQSYDTPLTFGGGTKVEIK 0.414 OD

Values were extracted from patent US20210380703A1.
